Entry source: patent US4963585A

# METHOD_NOTES: Acute toxicity, intraperitoneal, mice
# EXPERIMENTAL_CONTEXT: mouse, in vivo, ip, female, 4 weeks old
# Text: The WF11605 was intraperitoneally given to mice (female, 4 weeks old). From the test results, LD50 of WF11605 was more than 1 g/kg.

[
  {
    "MOLECULE": "CC(=O)OC1CC2(C)C3=C(CCC2C(C)(C)C1OC1OC(CO)C(O)C(O)C1O)C1(C)CC(=O)C(C)(C(C)C(C)C)C(C(=O)O)C1(C)CC3 (stereo not shown)",
    "LD50": "> 1000 mg/kg"
  }
]
